Target: Histone deacetylase 1 (Homo sapiens) (UniProt Q13547)
Sequence (Q13547 whole entry): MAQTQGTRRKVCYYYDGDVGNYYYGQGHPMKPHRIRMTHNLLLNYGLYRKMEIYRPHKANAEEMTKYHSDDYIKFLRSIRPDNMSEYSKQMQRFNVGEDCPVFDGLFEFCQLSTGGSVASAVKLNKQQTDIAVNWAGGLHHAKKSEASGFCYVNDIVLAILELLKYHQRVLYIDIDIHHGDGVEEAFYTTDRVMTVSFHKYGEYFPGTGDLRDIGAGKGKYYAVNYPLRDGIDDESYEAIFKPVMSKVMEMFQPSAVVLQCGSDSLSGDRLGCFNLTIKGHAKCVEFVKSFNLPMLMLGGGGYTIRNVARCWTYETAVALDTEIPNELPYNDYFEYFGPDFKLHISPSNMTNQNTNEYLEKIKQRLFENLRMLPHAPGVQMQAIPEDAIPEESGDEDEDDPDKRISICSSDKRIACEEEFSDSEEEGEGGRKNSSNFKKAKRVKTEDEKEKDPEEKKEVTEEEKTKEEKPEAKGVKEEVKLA
Experiment: Inhibition of human recombinant GST-tagged HDAC1 expressed in Sf9 cells using Fluor de Lys as substrate at 5 uM after 0.5 hrs by fluorimetry
Active and inactive are the calls of the source. The calls are words filed in the database; no cut-off is given here.
Form entry, call: pick from active, inactive

Worked cases, answers included:
MOLECULE: COCCNC(=O)/C(Cc1ccc(O)c(Br)c1)=N/O
QUALITATIVE LABEL: inactive

MOLECULE: O=C(NCCSSCCNC(=O)/C(Cc1cc(Br)c(O)c(Br)c1)=N/O)/C(Cc1cc(Br)c(O)c(Br)c1)=N/O
QUALITATIVE LABEL: inactive

MOLECULE: O=C(NCCCCCCNC(=O)/C(Cc1ccc(O)c(Br)c1)=N/O)/C(Cc1ccc(O)c(Br)c1)=N/O
QUALITATIVE LABEL: inactive

MOLECULE: O=C(NCCCCSSCCCCNC(=O)/C(Cc1ccc(O)c(Br)c1)=N/O)/C(Cc1ccc(O)c(Br)c1)=N/O
QUALITATIVE LABEL: inactive

MOLECULE: O=C(NCCSSCCNC(=O)/C(Cc1ccc(O)c(Br)c1)=N/O)/C(Cc1ccc(O)c(Br)c1)=N/O
QUALITATIVE LABEL: active

# input Outcome logged for O=C1C=CC2(C=C1Br)CC(C(=O)NCCSSCCNC(=O)C1=NOC3(C=CC(=O)C(Br)=C3)C1)=NO2 (stereo not drawn) in this assay:
# output inactive

# input Query O=C(CCc1ccc(O)c(Br)c1)NCCSSCCNC(=O)CCc1ccc(O)c(Br)c1 next
# output inactive

# input Also check O=C(NCCCCCCSSCCCCCCNC(=O)/C(Cc1ccc(O)c(Br)c1)=N/O)/C(Cc1ccc(O)c(Br)c1)=N/O
# output inactive

# input Here is the next molecule: O=C(NCCSSCCNC(=O)/C(Cc1ccc(O)c(F)c1)=N/O)/C(Cc1ccc(O)c(F)c1)=N/O
# output active

# input Same again, this time with O=C(NCCSSCCNC(=O)/C(Cc1ccccc1)=N/O)/C(Cc1ccccc1)=N/O
# output active

# input Here is the next molecule: O=C(NCCSSCCNC(=O)/C(Cc1ccc(O)cc1)=N/O)/C(Cc1ccc(O)cc1)=N/O
# output active

# input // next record O=C(NCCO)/C(Cc1ccc(O)c(Br)c1)=N/O
# output inactive
